# System: Mus musculus
# Assay comment: Antidepressant activity in ip dosed mouse assessed as stimulation of locomotor activity relative to cocaine
# Format: functional
Test readout: Activity (%)
Give bare numbers, in %.

Example entries begin here.
| Compound | Activity, % |
| --- | --- |
| Cc1cccc(C(=O)C(C)NC(C)(C)C)c1 (centres undefined) | 76 |
| CCC(NC(C)(C)C)C(=O)c1cccc(Cl)c1 (centres undefined) | 62 |

Lab note: each compound below needs its Activity filled in.
1. CC(NC(C)(C)C)C(=O)c1cccc(Cl)c1 (centres undefined)
2. CCCCCCC(NC(C)(C)C)C(=O)c1cccc(Cl)c1 (centres undefined)
3. CC(NC(C)(C)C)C(O)c1ccccc1 (racemic)
4. CC(NC(C)(C)C)C(=O)c1ccc(Br)cc1 (centres undefined)
5. CCCCC(NC(C)(C)C)C(=O)c1cccc(Cl)c1 (centres undefined)
6. CCC(NC(C)(C)C)C(=O)c1ccc(Cl)c(Cl)c1 (centres undefined)

1. 87
2. 94
3. 41
4. 54
5. 136
6. 69
